test: NCI Yeast Anticancer Drug Screen. Data for the cln2 rad14 strain (AID 165);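 note: 0% = growth equal to vehicle treated cultures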; settings: S. cerevisiae cln2 rad14 strain, at 50.0 µM, stronger effect = higher value
About 79,000 compounds went through this panel and 15% of them were active in at least one assay; those are over-represented in the sample as a whole.
Below, each of the molecules is paired with its reported growth inhibition value.
A number alone suffices; assume %.

Worked cases, growth inhibition given:
                                   molecule    reported_metric    val
0                   C=CC[Si](CC=C)(CC=C)OCC  growth inhibition      7
1                        Cc1cc(Cl)c(Cl)cc1N  growth inhibition  -9.65
2      CCOC(=O)C(=CNc1ccc(F)c(F)c1)C(=O)OCC  growth inhibition   -2.2
3  O=C(Nc1ccc(Br)cc1)C(=O)C(C(=O)c1ccc(Cl)c(Cl)c1)C1OC(=O)c2ccccc21 (stereo not drawn)  growth inhibition   64.5
4  CNSC1CCC2(C)C(=CCC3C2CCC2(C)C(C(C)CCCC(C)C)CCC32)C1 (stereo not drawn)  growth inhibition  -5.05

Task item: Identify measured growth inhibition corresponding to `CC(C)C(=NNC(N)=O)C(C)C`
Reply: -3.7

Task item: Identify measured growth inhibition corresponding to `COc1cccc(/C=N/N(C)c2c([N+](=O)[O-])cc(C(F)(F)F)cc2[N+](=O)[O-])c1O`
Reply: 14.1

Task item: Identify measured growth inhibition corresponding to CCCCOc1ccc(C(=O)C(C(c2ccccc2)N2CCOCC2)N2CCOCC2)cc1 (stereo not drawn)
Reply: -6.8

Task item: Identify measured growth inhibition corresponding to C/C(=C\CNc1ncnc2c1ncn2C1CCCCO1)COP(=O)(O)O (stereo not drawn)
Reply: 22.2

Task item: Identify measured growth inhibition corresponding to `Nc1ccc([N+](=O)[O-])c(C(=O)O)c1`
Reply: 15.9

Task item: Identify measured growth inhibition corresponding to `CCCC(=O)Oc1ccc(Br)cc1`
Reply: 12.8
